Origin of values: the supplement of paper PMC9112550

Test system: Escherichia coli TOP10;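 further: peptides expressed intracellularly from a pBAD plasmid library in pooled LB shake-flask culture, induced with 0.3% L-arabinose, DNA abundance read by NGS, three biological replicates, DESeq2 with apeglm shrinkage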
Experiment: shrunken log2 fold change of peptide-encoding DNA abundance (4.5 h post-induction vs induction); higher = less antimicrobial activity (less host growth inhibition)
Details: time post-induction: 4.5 h; library: site-saturation at positions 5, 18, 19, 20
For each of the sequences below, state its shrunken log2 fold change.
Answers are plain numbers.

Use these answered entries as a reference point.
- biosequence: "RRIRVRPPRLPRPRPRPADVPRP"
  shrunken log2 fold change: 0.000571
- biosequence: "RRIRSRPPRLPRPRPRPRSMPRP"
  shrunken log2 fold change: -0.0644
- biosequence: "RRIRDRPPRLPRPRPRPNSCPRP"
  shrunken log2 fold change: 0.0563

Please give shrunken log2 fold change for each item listed below.
1. RRIRLRPPRLPRPRPRPDFQPRP
2. RRIRNRPPRLPRPRPRPEVGPRP
3. RRIRTRPPRLPRPRPRPPSMPRP
4. RRIRNRPPRLPRPRPRPDEFPRP

**A:**
1. 0.157
2. 0.662
3. 0.13
4. -0.0168

Please give shrunken log2 fold change for each item listed below.
1. RRIRYRPPRLPRPRPRPRRGPRP
2. RRIRVRPPRLPRPRPRPENKPRP
3. RRIRRRPPRLPRPRPRPLVEPRP

**A:**
0.114
-0.134
0.116
